Give measured inhibition for each item. Keep answers brief.
Test Target: Sodium-dependent serotonin transporter (Homo sapiens) (UniProt P31645)
Sequence (P31645 whole entry, looked up): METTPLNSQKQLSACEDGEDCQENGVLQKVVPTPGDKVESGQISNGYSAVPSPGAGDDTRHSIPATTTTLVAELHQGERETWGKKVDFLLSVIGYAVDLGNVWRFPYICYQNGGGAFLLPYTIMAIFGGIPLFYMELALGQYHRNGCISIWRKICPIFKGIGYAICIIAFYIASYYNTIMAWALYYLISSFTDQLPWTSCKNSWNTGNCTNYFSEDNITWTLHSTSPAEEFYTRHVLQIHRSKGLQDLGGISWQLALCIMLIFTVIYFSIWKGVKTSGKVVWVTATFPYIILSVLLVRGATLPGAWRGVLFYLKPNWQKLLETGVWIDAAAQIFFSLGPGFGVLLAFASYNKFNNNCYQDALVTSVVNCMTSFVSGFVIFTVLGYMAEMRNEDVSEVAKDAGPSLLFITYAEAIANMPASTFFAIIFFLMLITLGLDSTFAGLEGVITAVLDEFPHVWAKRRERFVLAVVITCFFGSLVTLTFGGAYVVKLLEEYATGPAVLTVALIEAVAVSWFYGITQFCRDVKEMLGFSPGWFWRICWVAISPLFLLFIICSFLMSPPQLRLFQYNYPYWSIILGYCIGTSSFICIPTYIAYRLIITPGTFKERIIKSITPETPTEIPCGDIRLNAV
Assay Name: Inhibition of [3H]hydroxytryptamine creatinine sulfate uptake at human SERT expressed in human JAR cells at 1 uM
Format: cell-based
All answers are understood in %, so give the number only.

Qu. What value of inhibition has been reported for the following molecule? CCn1c(=O)n([C@@H](c2cccc(F)c2)[C@H](O)CNC)c2c(F)cccc21
Ans. 8

Qu. Also, CCCn1c(=O)n([C@@H](c2ccccc2)[C@H](O)CNC)c2ccccc21 please.
Ans. 15

Qu. # iterate: CNC[C@@H](O)[C@H](c1ccccc1)n1c(=O)n(C(C)(C)C)c2ccccc21
Ans. 1

Qu. Please give the result for CNC[C@@H](O)[C@H](c1ccccc1)n1c(=O)n(C2CCC2)c2ccccc21 too.
Ans. 5

Qu. Record: CNC[C@@H](O)[C@H](c1cccc(F)c1)n1c(=O)n(C(C)C)c2cccc(F)c21
Ans. 19
